target: E. coli CsgA (Escherichia coli, UniProt P28307); construct: made in house; host or cells: E. coli NEB 3016 slyD::kan, pET11d; experiment: In vitro ThioflavinT assay of CsgA aggregation (CsgA ThT Assay); type: biochemical; settings: read-out: CsgA ThT Assay (10 μM CsgA) % Control AUC at 1005 minutes, 25 μM, mean AUC as % of DMSO control; CsgA 10 μM, black plates; compound 25 μM; 1005 minutes
Sequence (P28307 23-151): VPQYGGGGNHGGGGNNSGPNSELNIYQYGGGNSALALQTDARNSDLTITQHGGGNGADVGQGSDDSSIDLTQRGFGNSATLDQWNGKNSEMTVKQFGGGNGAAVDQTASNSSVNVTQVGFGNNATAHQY
The label is label 1 for remaining activity at 25 µM below 60% and label 0 for remaining activity at 25 µM equal to or exceeding 60%.

molecule	cat
Cn1c(=O)c2c(ncn2CCCCCN2CC(C(=O)O)n3c(c(-c4cccc(C(F)(F)F)c4)c(Cc4cccc5ccccc45)cc3=O)S2(=O)=O)n(C)c1=O (stereo not shown)	label 0

Inquiry: Report whether reported remaining activity at 25 µM is lower than 60% (strictly) for CCCN1CC(C(=O)O)n2c(c(-c3cccc(C(F)(F)F)c3)c(Cc3cccc4ccccc34)cc2=O)S1(=O)=O (single isomer, unassigned) [Compound 016a]
Reply text: label 1

Inquiry: Please indicate whether the reported remaining activity at 25 µM of CC1(C(=O)O)CNS(=O)(=O)c2c(-c3cccc(C(F)(F)F)c3)c(Cc3cccc4ccccc34)cc(=O)n21 (stereo not shown) is strictly below 60%.
Reply text: label 1

Inquiry: API: query returns whether the molecule falls strictly under 60% in remaining activity at 25 µM. Query: O=C(O)CCCN1CC(C(=O)O)n2c(c(-c3cccc(C(F)(F)F)c3)c(Cc3cccc4ccccc34)cc2=O)S1(=O)=O (stereo not shown)
Reply text: label 0

Inquiry: Confirm or reject: remaining activity at 25 µM of CN1CC(C(=O)O)n2c1c(-c1cccc(C(F)(F)F)c1)c(Cc1cccc3ccccc13)cc2=O (stereo not shown) lies strictly below 60%
Reply text: label 0
